# TARGET OF ASSAY: recombinant human MAGL (Homo sapiens)
# Construct: membranes overexpressing MAGL
# Sequence (Q99685 whole entry): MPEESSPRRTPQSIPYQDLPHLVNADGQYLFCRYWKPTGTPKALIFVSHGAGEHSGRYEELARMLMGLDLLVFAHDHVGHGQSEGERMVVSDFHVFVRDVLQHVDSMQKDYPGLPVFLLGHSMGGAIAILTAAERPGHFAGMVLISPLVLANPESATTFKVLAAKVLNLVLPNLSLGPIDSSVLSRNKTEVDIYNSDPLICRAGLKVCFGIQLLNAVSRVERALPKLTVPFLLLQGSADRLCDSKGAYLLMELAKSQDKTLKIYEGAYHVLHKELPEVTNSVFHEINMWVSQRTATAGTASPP
# PROTOCOL NOTES: MAGL assay (glycerol detection, 2-AG as substrate)
OBSERVED PROPERTY: Ki

Briefly, Ki measured for Cc1ccc(-c2cnc3nc(C(=O)CCCCCc4ccccc4)oc3c2)cc1 [Compound 25] : > 10 µM

----------
# TARGET OF ASSAY: hDAGL-β (Homo sapiens, UniProt Q8NCG7)
# Sequence (Q8NCG7 whole entry): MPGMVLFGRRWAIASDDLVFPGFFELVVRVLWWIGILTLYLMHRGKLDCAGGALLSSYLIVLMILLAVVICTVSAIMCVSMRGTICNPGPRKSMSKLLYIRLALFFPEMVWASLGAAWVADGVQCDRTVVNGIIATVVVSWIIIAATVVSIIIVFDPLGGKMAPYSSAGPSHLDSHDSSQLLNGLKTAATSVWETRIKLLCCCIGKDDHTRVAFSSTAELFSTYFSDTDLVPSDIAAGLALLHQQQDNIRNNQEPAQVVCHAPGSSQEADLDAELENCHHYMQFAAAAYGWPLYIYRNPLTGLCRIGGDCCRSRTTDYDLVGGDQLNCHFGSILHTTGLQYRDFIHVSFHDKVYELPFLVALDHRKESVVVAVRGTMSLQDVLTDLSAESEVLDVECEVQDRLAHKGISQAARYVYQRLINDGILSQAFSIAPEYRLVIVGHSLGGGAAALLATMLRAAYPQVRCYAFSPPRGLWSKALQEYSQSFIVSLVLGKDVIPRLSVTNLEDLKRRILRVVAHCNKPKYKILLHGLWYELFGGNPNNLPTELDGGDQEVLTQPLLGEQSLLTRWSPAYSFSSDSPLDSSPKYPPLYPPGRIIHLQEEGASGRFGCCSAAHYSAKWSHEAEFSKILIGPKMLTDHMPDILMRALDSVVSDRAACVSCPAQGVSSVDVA
# PROTOCOL NOTES: Biochemical assay with para-nitrophenylbutyrate as surrogate substrate on human DAGL-β
# CONDITION DESCRIPTION: n=4
OBSERVED PROPERTY: pIC50
Note: pIC50 values are expressed as the negative base-10 logarithm of concentration in M.

Briefly, pIC50 measured for Cc1ccc(-c2cnc3nc(C(=O)CCCCCc4ccccc4)oc3c2)cc1 [Compound 25] : 8.10
